The listing below reports Kd for compounds tested on Serine/threonine-protein kinase PAK 6 (Homo sapiens). Further: in the data inactive means no Kd found up to 30 µM.
Sequence (Q9NQU5 whole entry): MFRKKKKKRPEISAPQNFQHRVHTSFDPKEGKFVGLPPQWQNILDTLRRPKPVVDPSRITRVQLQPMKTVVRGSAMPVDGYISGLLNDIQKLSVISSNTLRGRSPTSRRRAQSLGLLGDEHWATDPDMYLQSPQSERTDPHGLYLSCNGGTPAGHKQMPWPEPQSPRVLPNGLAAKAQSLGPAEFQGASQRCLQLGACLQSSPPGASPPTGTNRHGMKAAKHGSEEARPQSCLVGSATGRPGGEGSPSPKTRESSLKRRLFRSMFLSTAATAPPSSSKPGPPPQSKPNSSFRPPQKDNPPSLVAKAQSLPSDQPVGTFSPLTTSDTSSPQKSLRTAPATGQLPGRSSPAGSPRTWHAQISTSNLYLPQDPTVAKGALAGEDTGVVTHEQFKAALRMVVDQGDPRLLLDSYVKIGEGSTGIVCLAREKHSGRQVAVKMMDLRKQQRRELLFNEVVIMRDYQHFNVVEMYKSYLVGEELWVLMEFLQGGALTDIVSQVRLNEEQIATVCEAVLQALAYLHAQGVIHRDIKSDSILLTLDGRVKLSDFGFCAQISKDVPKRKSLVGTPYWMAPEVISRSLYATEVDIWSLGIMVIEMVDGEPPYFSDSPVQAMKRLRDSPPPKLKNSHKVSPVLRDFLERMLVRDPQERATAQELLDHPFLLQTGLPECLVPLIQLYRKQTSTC
Calls of active or inactive are those of the source.

COc1ccc(-c2ccc3c(N4CCOC[C@@H]4C)nc(N4CCOC[C@@H]4C)nc3n2)cc1CO > 30 µM (inactive)
CNC(=O)CN1CCC(Oc2cc3c(Nc4cccc(Cl)c4F)ncnc3cc2OC)CC1 > 30 µM (inactive)
CCN1CCN(Cc2ccc(-c3cc4c(N[C@H](C)c5ccccc5)ncnc4[nH]3)cc2)CC1 > 30 µM (inactive)
Cc1ccc(-n2nc(C(C)(C)C)cc2NC(=O)NCc2cc(F)ccc2Oc2ccc3c(cnn3CCO)c2)cc1 > 30 µM (inactive)

Read the next record carefully.
Task item: Quickly give me recorded Kd for "CC(=O)Nc1cccc(-n2c(=O)n(C3CC3)c(=O)c3c(Nc4ccc(I)cc4F)n(C)c(=O)c(C)c32)c1"
Reply: > 30 µM (inactive)

###

# measurement.target: Protein kinase C alpha type (Homo sapiens, UniProt P17252); further: in the data inactive means no Kd found up to 30 µM
Active and inactive are the calls of the source.
Write down the outcome that applies. Available outcomes: TRUE (active), FALSE (inactive)

molecule	discrete.label
Cn1ncc(Cl)c1-c1cc(C(=O)N[C@H](CN)Cc2cccc(F)c2)sc1Cl	TRUE
CCN1CCN(Cc2ccc(-c3cc4c(N[C@H](C)c5ccccc5)ncnc4[nH]3)cc2)CC1	FALSE
CN1N=C(N)c2cn([C@@H]3O[C@H](COP(=O)(O)O)[C@@H](O)[C@H]3O)c3ncnc1c23 [TRICIRIBINE PHOSPHATE]	FALSE
CNS(=O)(=O)Nc1nccc(Cc2c(C)c3ccc(Oc4ncccn4)cc3oc2=O)c1F	FALSE
CNC(=O)c1cc(Oc2ccc(NC(=O)Nc3ccc(Cl)c(C(F)(F)F)c3)c(F)c2)ccn1	FALSE

Task item: Hi team, can someone confirm the assay call for "Cc1ccc(S(=O)(=O)Nc2nc3ccccc3nc2Nc2ccc3nsnc3c2)cc1" ?
Reply: FALSE

Task item: How did this test come out for "CN(C)C(=O)c1cc2cnc(Nc3ccc(N4CCNCC4)cn3)nc2n1C1CCCC1" ?
Reply: FALSE

Task item: How did this test come out for "Cn1cc(-c2ccc(F)c(C(F)(F)F)c2)nc1C1CCN(c2ncnc3[nH]ncc23)CC1" ?
Reply: FALSE

Task item: Any idea what this test logged for "Nc1nc(N)c2nc(-c3cccc(O)c3)c(-c3cccc(O)c3)nc2n1" ?
Reply: FALSE

###

# measurement.target: dCTP pyrophosphatase 1 (Homo sapiens, UniProt Q9H773); further: in the data inactive means no Kd found up to 30 µM
# Sequence (Q9H773 whole entry): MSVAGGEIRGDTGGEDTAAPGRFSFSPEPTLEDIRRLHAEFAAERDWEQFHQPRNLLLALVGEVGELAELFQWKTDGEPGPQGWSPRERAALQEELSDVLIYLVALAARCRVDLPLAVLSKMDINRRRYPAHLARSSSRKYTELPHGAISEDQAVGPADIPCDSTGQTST
Calls of active or inactive are those of the source.
// classify into active, inactive

As a guide, the following entries are already answered.
compound	discrete.label
Cn1cc(-c2ccc(F)c(C(F)(F)F)c2)nc1C1CCN(c2ncnc3[nH]ncc23)CC1	inactive
CCn1c(-c2nonc2N)nc2c(C#CC(C)(C)O)ncc(OC[C@H]3CCCNC3)c21	active
C[C@@H]1CN(Cc2ccc(F)cc2)[C@@H](C)CN1C(=O)c1cc2c(C(=O)C(=O)N(C)C)cn(C)c2cc1Cl	inactive
CN1CCC(CNc2ccc3ncc(-c4cccc(OC(F)(F)F)c4)n3n2)CC1	inactive
CO[C@H]1C[C@@H]2CC[C@@H](C)[C@@](O)(O2)C(=O)C(=O)N2CCCC[C@H]2C(=O)O[C@H]([C@H](C)C[C@@H]2CC[C@@H](OCCO)[C@H](OC)C2)CC(=O)[C@H](C)/C=C(\C)[C@@H](O)[C@@H](OC)C(=O)[C@H](C)C[C@H](C)/C=C/C=C/C=C/1C	inactive

Task item: Recorded test outcome, item "CC[C@H](Nc1ncnc2[nH]cnc12)c1nc2cccc(F)c2c(=O)n1-c1ccccc1"
Reply: inactive

Task item: // param item: "COC(=O)N[C@@H](C)CNc1nccc(-c2cn(C(C)C)nc2-c2cc(Cl)cc(NS(C)(=O)=O)c2F)n1" ; yields the recorded call
Reply: inactive

Task item: For CN1N=C(N)c2cn([C@@H]3O[C@H](COP(=O)(O)O)[C@@H](O)[C@H]3O)c3ncnc1c23 [TRICIRIBINE PHOSPHATE] , what call appears in the results of this test?
Reply: inactive

Task item: Please share the test call associated with "O=C(c1ccc(F)c(F)c1Nc1ccc(I)cc1F)N1CC(O)([C@@H]2CCCCN2)C1" .
Reply: inactive

Task item: Answer briefly: the call reported for "CCn1c(=O)c(-c2cc[nH]n2)cc2c(C)nc(N)nc21" in this assay.
Reply: inactive

Task item: Per the records of this test, what outcome belongs to "Cc1cc(Nc2cc(N3CCN(C)CC3)nc(/C=C/c3ccccc3)n2)n[nH]1" ?
Reply: inactive

Task item: Identify the outcome logged in this assay for the compound shown: "O=c1sn(-c2cccc3ccccc23)c(=O)n1Cc1ccccc1"
Reply: inactive

Task item: Name the outcome recorded for Cc1cc2c(F)c(Oc3ncnn4cc(OC[C@@H](C)OC(=O)[C@H](C)N)c(C)c34)ccc2[nH]1 [BRIVANIB ALANINATE] in the assay.
Reply: inactive

Task item: What did this assay record as the result for "N[C@@H]1CCCN(c2c(/C=C3\SC(=O)NC3=O)cccc2-c2ccccc2)C1" ?
Reply: inactive

Task item: Per the records of this test, what outcome belongs to "O=C(O)[C@]1(Cc2cccc(Nc3nccs3)n2)CC[C@@H](Oc2cccc(Cl)c2F)CC1" ?
Reply: inactive

src = ChEMBL document CHEMBL3991601
